- Target desc: recombinant eIF4E (Homo sapiens (Human))
- Sequence (P06730 whole entry): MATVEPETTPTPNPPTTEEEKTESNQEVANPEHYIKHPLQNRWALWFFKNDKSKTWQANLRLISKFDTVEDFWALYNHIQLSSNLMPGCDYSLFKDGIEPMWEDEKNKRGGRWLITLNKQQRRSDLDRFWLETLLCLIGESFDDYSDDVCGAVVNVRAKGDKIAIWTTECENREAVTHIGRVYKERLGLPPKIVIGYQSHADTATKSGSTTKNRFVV
- Assay comment: Fluorescence polarization competition assay for eIF4E binding potency
- Conditions used: inhibition of eIF4E/EDA-m7GDP-ATTO-550 binding by 50%; Table 4B calculated values; read-out: IC50
Assay readout: IC50 (nM)

- Cc1nc2cc(Cl)c(Cl)c(C#N)c2c(=O)n1CC#Cc1ccc(Cl)cc1-c1ccnc2c(C(=O)O)csc12: 69.2
- Cc1nc2cc(OC(F)(F)F)c(Cl)c(C#N)c2c(=O)n1CCOc1ccc(Cl)cc1-c1ccnc2c(C(=O)O)csc12: 20.2
- Cc1cncc(-c2c(C(F)(F)F)cc3nc(C)n(CCOc4ccc(Cl)cc4-c4cc(C)nc5c(C(=O)O)csc45)c(=O)c3c2C#N)c1: 48.3
- Cc1nc2cc(C(F)(F)c3ccncc3)cc(C#N)c2c(=O)n1CCOc1ccc(Cl)cc1-c1ccnc2c(C(=O)O)csc12: 62.8
- Cc1cc(-c2cc(Cl)ccc2OCCn2c(C)nc3cnc(N(C)CC(F)(F)F)c(C#N)c3c2=O)c2scc(C(=O)O)c2n1: 57.8

1: Cc1cc(-c2cc(Cl)ccc2OCCn2c(C)nc3cc(Cl)c(-c4cc(F)cnc4C)c(C#N)c3c2=O)c2scc(C(=O)O)c2n1
2: Cc1cc(-c2cc(Cl)ccc2OCCn2c(C)nc3cc(C(F)(F)F)c(N4CCN(C)CC4)c(C#N)c3c2=O)c2scc(C(=O)OC(C)OC(=O)OC3CCCCC3)c2n1 (stereo not shown)
Please indicate which has the smaller reported IC50: 1 , or 2 . In your reply, give the label of the chosen option.
1
(1: 25.1 nM, 2: 903 nM)
